ASSAY OVERVIEW: 5' untranslated region of α-synuclein, MLPCN primary screen (AID 1813);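 also: H4 neuroglioblastoma cells stably carrying SNCA 5'UTR luciferase fusion; 0% = DMSO wells and 100% = positive control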
MEASUREMENT SETUP: alpha-synuclein 5'UTR reporter, inhibitor activity; hits give high values; tested at 7.5 µM
Among all 300,000 compounds or so, about 2,500 (0.83%) were called active. The entries come from a sample that favours actives as a whole.

COMPOUND	inhibition (%)
COc1ccc(C(C)=O)cc1COc1ccc(Cl)c(C)c1	50.7
CCOC(=O)c1ccc(NC(=O)c2c(N)n(C)c(=O)[nH]c2=O)cc1	-15.4
COc1cccc(Oc2ccc(N)cc2)c1	5.65
Cc1ccc(CN2CCNC(=O)C2CC(=O)NCc2csc(C(C)C)n2)cc1 (stereo not drawn)	9.72
CC(C)(C)C(=O)Nc1ccc(-c2cn3cccnc3n2)cc1	-130
CN(NC(=O)c1ccccc1)c1nc2ccccc2nc1C(F)(F)F	-26.7
CCCCn1c(=O)c(C(C)=O)c(O)c2ccccc21	-6.66
CC1CN/C(=C\C(=O)c2ccc(Br)cc2)C(=O)N1 (stereo not drawn)	62
CCCCCc1ccc(-c2ccc(C(=O)O)cc2)nc1	-19.1
CCNC(=S)N1CCC(c2nc3cc(C)c(C)cc3[nH]2)CC1	-15.5
CCOc1ccccc1NC(=O)Cc1cccs1	19.4
COc1ccc(/C=C2\SC(=S)N(CCC(=O)Nc3ccccn3)C2=O)cc1OC	28.8
COc1cccc(-c2cc(C(=O)N3CCN(c4ccccc4OC)CC3)no2)c1	-4.47
COc1cc(SC)ccc1C(=O)Nc1nc(C)cs1	96.2
CCCCCc1ccc(-c2ccc(OCC)cc2)nc1	79.7
O=C(NCCc1ccccc1)C(=O)NCC1OCCN1S(=O)(=O)c1cccs1 (stereo not drawn)	2.43
COC(=O)c1sccc1NC(=O)COc1ccc(Cl)cc1	-35.3
CCCOC1CCCN(C(=O)c2cc(COc3cncc(Cl)c3)on2)C1 (stereo not drawn)	-219
CCCCCc1ccc(-c2cn(Cc3ccc4ccccc4c3)nn2)cc1	-16.4
C/C(=N\NC(=O)CC(C)C)c1c(C(F)(F)F)[nH]n(-c2nc3ccccc3s2)c1=O	-51.5
CSc1nc(N(C)NC(=O)c2cccc(C)c2)c2ccccc2n1	114
Cc1ccc(NC(=O)COc2ccc(/C=C3/NC(=O)NC3=O)cc2)cc1	1.96
CCOC(=O)c1c(NC(=O)c2ccc(S(=O)(=O)N(C)CC3CCCO3)cc2)sc2c1CC(C)(C)NC2(C)C (stereo not drawn)	0.581
Cc1ccc(NC(=O)CCC(=O)c2ccc(Br)cc2)cc1	1.65
CCOc1cc2[nH]c(=S)n(Cc3ccc(C(=O)N4CCN(C)CC4)cc3)c(=O)c2cc1OCC	86.1
Cc1cccc(OCC(=O)NCCCNC(=O)c2ccccn2)c1	8.27
Cc1c(Cl)c([N+](=O)[O-])nn1Cc1ccc(C(=O)N/N=C\c2cc(Cl)ccc2O)o1	81.2
COc1ccc(Cc2nnc(NC(=O)c3ccc(OC)cc3OC)s2)cc1	-62.4
COc1cc(SC)ccc1C(=O)Nc1cc(C)ccn1	-8.42
COc1ccc(C(=O)C2CCCN(S(=O)(=O)c3cccc(C)c3)C2)c(C)c1 (stereo not drawn)	-3.32
COC(=O)Cc1[nH]n(-c2nc3ccccc3s2)c(=O)c1C(C)=Nc1ccc(OC)cc1	68.9
COC(=O)c1c(NC(=O)COc2ccc(Cl)cc2Cl)sc2c1CC(C)(C)NC2(C)C	102
COc1cc2c(cc1OC)/C(=C/C(=O)c1ccc(NC(C)=O)cc1)NCC2	22.9
CC(C)C(NS(=O)(=O)c1cccs1)C(=O)Nc1nc(C(C)(C)C)cs1 (stereo not drawn)	24.5
CCOCCCN(C)C1CCN(C(=O)c2oc3ccccc3c2NC(=O)COc2cccc(C)c2)CC1	45.5
CCOc1ccc(CC(=O)NCCS(=O)(=O)N2CCN(c3ccccc3)CC2)cc1	13.9
CC1=NNC(=O)C1Cc1c(Cl)cccc1Cl (stereo not drawn)	27
CCOC(=O)c1nnn2c3ccccc3c(=O)n(C)c12	-5.14
